Reference source: ChEMBL document CHEMBL1649204

Each item that follows carries a reported selectivity ratio.
assay: Therapeutic index, ratio of IC50 for human CCD-32Sk cells to MIC for Staphylococcus aureus 8235; type: cell-based; settings: read-out: TI
Respond using a number only.

Examples from the recorded data:
Record `CCCCCCCCCCN1C(=O)/C(=C(/C)O)C(=O)[C@@H]1C(C)C` , field selectivity ratio: 14.4

So for `CCCCCCCCCCN1C(=O)/C(=C(/C)O)C(=O)[C@@H]1CC(C)C` , the logged selectivity ratio turned out to be 12.3

Entry under test: `C/C(O)=C1\C(=O)[C@H](CC(C)C)N(Cc2ccc(-c3ccccc3)cc2)C1=O` . Its selectivity ratio was 21.2

Next:
selectivity ratio reading for C/C(O)=C1\C(=O)[C@H](CC(C)C)N(CC2=CCC3CC2C3(C)C)C1=O (some centres not stated) : 15.1

Kindly note the recorded selectivity ratio for C/C(O)=C1\C(=O)[C@H](CC(C)C)N(CCC(C)C/C=C/C(C)C)C1=O (some centres not stated) , which is 10.2

* * *

system: Staphylococcus aureus; test: Antimicrobial activity against methicillin-susceptible Staphylococcus aureus ATCC 29213 grown as biofilms by microdilution method; type: functional
measure: MBEC (µg/mL)
Field format: number, assumed µg/mL, no unit text.

Record summary for `CO[C@H]1/C=C/O[C@@]2(C)Oc3c(C)c(O)c4c(O)c(c(/C=N/N5CCN(C)CC5)c(O)c4c3C2=O)NC(=O)/C(C)=C\C=C\[C@H](C)[C@H](O)[C@@H](C)[C@@H](O)[C@@H](C)[C@H](OC(C)=O)[C@@H]1C` : reported MBEC = 25

For `C/C(O)=C1\C(=O)[C@H](CC(C)C)N(Cc2ccc(-c3ccccc3)cc2)C1=O` the compound record lists MBEC as 100

response.value for C/C(O)=C1\C(=O)[C@H](CC(C)C)N(CCC(C)C/C=C/C(C)C)C1=O (stereo partly drawn) (field: MBEC) = 50

Next:
So for `CCCCCCCCCCN1C(=O)/C(=C(/C)O)C(=O)[C@@H]1C(C)C` , the logged MBEC turned out to be 25

Recorded MBEC (compound `CCCCCCCCCCN1C(=O)/C(=C(/C)O)C(=O)[C@@H]1CC(C)C` ): 50

* * *

test system: Streptococcus pyogenes; assay: Antimicrobial activity against Streptococcus pyogenes by microdilution method; assay type: functional
// reported MIC90 for each item listed
Numbers only; they are read as µg/mL.

Field: example entries. Status: answers known.
Tested on Streptococcus pyogenes, the item C/C(=C\C(=O)OCCCCCCCCC(=O)O)C[C@@H]1OC[C@H](C[C@@H]2O[C@H]2[C@@H](C)[C@H](C)O)[C@@H](O)[C@H]1O [MUPIROCIN] showed MIC90 equal to 0.4

Recorded MIC90 for `CCCCCCCCCCN1C(=O)/C(=C(/C)O)C(=O)[C@@H]1CC(C)C` on Streptococcus pyogenes was 0.8

MIC90 for Streptococcus pyogenes with input `C/C(O)=C1\C(=O)[C@H](CC(C)C)N(Cc2ccc(-c3ccccc3)cc2)C1=O` equals 0.8

Entry `CCCCCCCCCCN1C(=O)/C(=C(/C)O)C(=O)[C@@H]1C(C)C` , Streptococcus pyogenes data, MIC90 value: 0.8

Short answer on Streptococcus pyogenes for CN[C@H](CC(C)C)C(=O)N[C@H]1C(=O)N[C@@H](CC(N)=O)C(=O)N[C@H]2C(=O)N[C@H]3C(=O)N[C@H](C(=O)N[C@H](C(=O)O)c4cc(O)cc(O)c4-c4cc3ccc4O)[C@H](O)c3ccc(c(Cl)c3)Oc3cc2cc(c3O[C@@H]2O[C@H](CO)[C@@H](O)[C@H](O)[C@H]2O[C@H]2C[C@](C)(N)[C@H](O)[C@H](C)O2)Oc2ccc(cc2Cl)[C@H]1O [VANCOMYCIN] , MIC90: 0.024

New cases:
Value (MIC90, Streptococcus pyogenes) for record C/C(O)=C1\C(=O)[C@H](CC(C)C)N(CCC(C)C/C=C/C(C)C)C1=O (some centres not stated) = 0.8

The value of MIC90 recorded for C/C(O)=C1\C(=O)[C@H](CC(C)C)N(CC2=CCC3CC2C3(C)C)C1=O (some centres not stated) when tested on Streptococcus pyogenes reads 1.6
